# subject-of-test: T1, Human MAGEB2 (Melanoma-associated antigen B2) (human, UniProt O15479 1-319)
# T1 construct: Intracellular antigen detected by IHC in FFPE material: CHO cells transfected with human MAGEB2 (mCherry vector with Myc/DDK tags, or ORF without tags)
# T1 sequence: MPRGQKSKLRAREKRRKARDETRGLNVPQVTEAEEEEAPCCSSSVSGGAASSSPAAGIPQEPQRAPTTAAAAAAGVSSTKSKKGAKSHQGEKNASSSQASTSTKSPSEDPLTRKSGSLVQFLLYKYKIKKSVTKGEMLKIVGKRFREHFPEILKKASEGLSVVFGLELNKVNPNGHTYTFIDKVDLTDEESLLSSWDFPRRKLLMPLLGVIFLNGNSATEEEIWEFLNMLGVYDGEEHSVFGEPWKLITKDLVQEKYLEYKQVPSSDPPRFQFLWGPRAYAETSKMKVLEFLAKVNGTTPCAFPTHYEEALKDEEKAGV
# assay-explanation: IHC on FFPE SCaBER cells (endogenous MAGEB2)
observed-property: IHC % Frequency (%)
Report as a plain number; the unit % is understood.

Worked cases, IHC % Frequency given:
1J15 (antibody, IgG1, V domains shown, Rabbit monoclonal IgG1; Tested as supernatant and as small batch purified antibody; also called MAGE-B2 (IJ15); anti-MAGEB2 antibody 1J15) VH: QSLEESGGGLVQPEGSLTLTCTAFGFTLNNYYICWVRQAPGKGLEWIACIDNANGRTYYASWAKGRFTISKTSSTTVTLQMTSLTAADTATYFCARSLSTPLWGPGTLVTVSS VL: DIVMTQTPASVEAAVGGTVTIKCQASQSISSYLSWYQQKPGQPPKLLIYRASTLASGVPSRFRGSGSGTQFTLTISDLECADAATYYCQSYDDSSDNNFFYGFGGGTEVVVR :: 50
1C3 (antibody, V domains shown, also called MAGE-B2 (IC3); anti-MAGEB2 antibody 1C3) VH: QSLEESGGGLVQPEGSLTLTCTAFGVTLTNYYICWVRQAPGKGLEWVGCIDNANGRTYYASWAKGRFTISKTSSTTGTLQMTSLTAADTATYFCARSLATPLWGPGTLVTVSS VL: DIVMTQTPSSVEAAVGGTVTIKCQASQNISSYLAWYQQKPGQPPKLLIYRASTLASGVPSRFKGSGSGTQFTLTISDLECADAATYYCQSYDDSRSSNFFYAFGGGTEVVVKG :: 70
4G17 (antibody, IgG1, V domains shown, Rabbit monoclonal IgG1; Tested as supernatant and as small batch purified antibody; also called MAGE-B2 (4G17); anti-MAGEB2 antibody 4G17) VH: QSLEESGGGLVQPEGSLTLTCTASGVTLSNYYICWVRQAPGKGLEWIGCIDNVNGRTYYASWAKGRFTISKTSSTTGTLQMTSLTAADTATYFCARSLATPLWGPGTLVTVSS VL: DIVMTQTPASVEAAVGGTVTIKCQASQNIDSYLAWYQQKPGQPPKLLIYRASTLASGVPSRFKGSGSGTEFTLTISDLECADAATYYCQSYDDSRSSSFFYGFGGGTEVVVK :: 70

What the record says about 1I14 (antibody, V domains shown, also called MAGE-B2 (1i14)) VH: QSVEESGGRLVTPGTPLTLTCTISGFSLSSYAMSWVRQAPGKGLEWIGSIGGGGSAVYASWAKGRFTISKTSTTVDLRITSPTTEDTAMYFCGRGFYSIDLWGPGTLVTVSS VL: DVVMTQTPASVEATVGGTVTIKCQSSQSVYDNNALAWYQQNAGQRPRLLIYGASTLASGVPSRFSASGSGTEFTLTISDLECADAATYYCQCTYYVSSYQNDFGGGTEVVVKG : IHC % Frequency is 0

Source listed as patent US20250282887A1.
